Hey, just so you know, these numbers are from patent US20210122826A1.

tested_target: T1, Human Clec12B (human, UniProt Q2HXU8 1-276)
T1 construct: also called hClec12B
T1 sequence: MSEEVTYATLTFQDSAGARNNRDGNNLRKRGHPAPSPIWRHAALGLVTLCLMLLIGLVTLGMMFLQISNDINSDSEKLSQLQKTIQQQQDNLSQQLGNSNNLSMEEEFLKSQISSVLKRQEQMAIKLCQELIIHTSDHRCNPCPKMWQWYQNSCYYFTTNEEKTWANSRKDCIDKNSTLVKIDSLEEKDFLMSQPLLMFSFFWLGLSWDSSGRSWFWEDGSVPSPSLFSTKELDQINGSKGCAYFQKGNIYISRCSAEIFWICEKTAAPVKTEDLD
measurement_protocol: flow, Jurkat, 100 nM Ab

{"binder": "KW9.3.3 (antibody, V domains shown) VH: EVQLVESGGGLVQPGGSLRLSCAASGFTFSSYAMSWVRQAPGKGLEWVSAISGSGGRTYYADSVKGRFTISRDNSKNTLYLQMNSLRAEDTAMYYCARGPGYMYLYGDSFFEYWGQGTLVTVSS VL: DIQMAQSPSSLSASVGDRVTITCRASQGISSYLNWYQQKPGKAPKLLIYAASSLQSGVPSRFSGSGYGTDFTLTISSLQPEDFATYYCQQSYSTPLTFGQGTKVEIK", "MFI normalized to WT": 0.94}
